Some compounds, each annotated with its measured growth inhibition.
Experiment: NCI Yeast Anticancer Drug Screen. Data for the CLN2oe strain (AID 163);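 also: 0% = growth of vehicle-only control cultures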
Settings: S. cerevisiae CLN2oe strain, at 1.2 µM, stronger effect = higher value
Compounds without any hit were thinned out: in the full panel of roughly 79,000, 15% have a hit.
Your answer should be a plain number; it is taken to be in %.

Here is how some compounds turned out for growth inhibition.
- compound: "O=C1C=C(CN(CCCl)CCCl)C(=O)C=C1CN(CCCl)CCCl"
  endpoint-unit: "%"
  growth inhibition: -7
- compound: "CCNC(=O)OCC1C2=C(C(=O)C(C)=C(N)C2=O)N2CC3C(N3C)C12OC (stereo unspecified)"
  endpoint-unit: "%"
  growth inhibition: 4
- compound: "CCC1(OC(=O)CN)C(=O)OCc2c1cc1n(c2=O)Cc2cc3ccccc3nc2-1 (stereo unspecified)"
  endpoint-unit: "%"
  growth inhibition: 37

Need growth inhibition of C[C@]12CCC3[C@@H](CC[C@@H]4c5nonc5CC[C@]34C)C1CCC2=O (stereo partly specified) , thanks.
38

Returns the measured growth inhibition for the input compound. Input: CCC1(O)C(=O)OCc2c1cc1n(c2=O)Cc2cc3ccccc3nc2-1 (stereo unspecified)
12

Requested read-out: growth inhibition. Entry: C[C@@]12CCC(=O)C=C1CC[C@H]1C2=CC[C@]2(C)C1CC[C@@]2(C)O (stereo partly specified)
32

Which growth inhibition value belongs to O=C(O)C1C2c3ccccc3C(c3ccccc32)C1C(=O)O (stereo unspecified) ?
-4
